Test system: clot lysis (fibrinolysis) in human citrated plasma, tPA-induced
Assay: Plasma-based clot lysis assay (5%)
Format: biochemical
Conditions: diluted human citrated plasma (platelet-poor, 5%), fibrinogen 3 μM, CaCl2 10 mM, tPA 0.2 nM, 37° C., OD 405 nm
pIC50: −log10 of the molar value. Structures can show the parent of a compound that is named as a salt.
RECORDED_METRIC: pIC50

Worked examples, 2 compounds total:
O=c1cc(C2CCNCC2)n2nc3nccc(-c4ccccc4)c3c2[nH]1 [Example 46, hydrochloride]: 7.77
O=c1cc(C2CCNCC2)n2nc3ccc(F)c(Cl)c3c2[nH]1 [Example 90, hydrochloride]: 7.62

1 = Cc1cccc2nn3c(C4CCNCC4)cc(=O)[nH]c3c12 [Example 36, hydrochloride]
2 = O=c1cc(C2CCNCC2)n2nc3ncc(-c4ccccc4)cc3c2[nH]1 [Example 45, hydrochloride]
Query :: Determine, for 1 and 2 , which has the greater value of pIC50. Identify your selection by its label.
Result :: 1

* * *

Tested on: clot lysis (fibrinolysis) in human citrated plasma, tPA-induced
Experiment: Plasma-based clot lysis assay (5%)
Format: biochemical
Details: diluted human citrated plasma (platelet-poor, 5%), fibrinogen 3 μM, CaCl2 10 mM, tPA 0.2 nM, 37° C., OD 405 nm
Where a name gives a salt, the structure may show the parent alone.
RECORDED_METRIC: IC50 (nM)

O=c1cc(C2CCNCC2)n2nc3cccc(-n4ccnn4)c3c2[nH]1 [Example 99, hydrochloride]: 29

A = O=c1cc(C2CCNCC2)n2nc3cccc(-c4cccnc4)c3c2[nH]1 [Example 58, hydrochloride]
B = O=c1cc(C2CCNCC2)n2nc3cc(F)cc(F)c3c2[nH]1 [Example 23, hydrochloride]
C = O=c1cc(C2CCNCC2)n2nc3nccnc3c2[nH]1 [Example 38, hydrochloride]
Query :: Sort (3 compounds) by IC50: min first. Give your ranking as a list of the labels in the requested order.
Result :: A, B, C

* * *

System: clot lysis (fibrinolysis) in human citrated plasma, tPA-induced
Experiment: Plasma-based clot lysis assay (5%)
Format: biochemical
Conditions: diluted human citrated plasma (platelet-poor, 5%), fibrinogen 3 μM, CaCl2 10 mM, tPA 0.2 nM, 37° C., OD 405 nm; hydrochloride
Where a name gives a salt, the structure may show the parent alone.
RECORDED_METRIC: IC50 (µM)

Field: example entries. Status: answers known.
O=c1cc(C2CCNCC2)n2nc3cccc(Cl)c3c2[nH]1 [Example 3, hydrochloride]: 0.028
O=c1cc(C2CCNCC2)n2nc3cccc(Br)c3c2[nH]1 [Example 10, hydrochloride]: 0.034
N#Cc1cccc2nn3c(C4CCNCC4)cc(=O)[nH]c3c12 [Example 53, hydrochloride]: 0.01
O=c1cc(C2CCNCC2)n2nc3cccc(-c4ccccc4F)c3c2[nH]1 [Example 57, hydrochloride]: 0.013

a = O=c1cc(C2CCNCC2)n2nc3cccc(Br)c3c2[nH]1 [Example 60, hydrochloride]
b = C[C@H]1C[C@H](c2cc(=O)[nH]c3c4c(Cl)cccc4nn23)CCN1 [Example 68, hydrochloride]
Query :: Pick one: a or b . Which one has the lower reported IC50? Identify your selection by its label.
Result :: a

* * *

Test system: clot lysis (fibrinolysis) in human citrated plasma, tPA-induced
Assay: Plasma-based clot lysis assay (5%)
Type: biochemical
Conditions: diluted human citrated plasma (platelet-poor, 5%), fibrinogen 3 μM, CaCl2 10 mM, tPA 0.2 nM, 37° C., OD 405 nm
Where a name gives a salt, the structure may show the parent alone.
RECORDED_METRIC: IC50 (nM)

O=c1cc(C2CCNCC2)n2nc3cccc(F)c3c2[nH]1 [Example 4, hydrochloride]: 28
O=c1cc(C2CCNCC2)n2nc3cccc(OCC(F)(F)F)c3c2[nH]1 [Example 107, hydrochloride]: 34
O=c1cc(C2CCNCC2)n2nc3c(F)cccc3c2[nH]1 [Example 28, hydrochloride]: 33
O=c1cc(C2CCNCC2)n2nc3cccc(-c4cccs4)c3c2[nH]1 [Example 88, hydrochloride]: 26
Nc1ccc2c(c1)nn1c(C3CCNCC3)cc(=O)[nH]c21 [Example 16, hydrochloride]: 34
CCOc1cccc2nn3c(C4CCNCC4)cc(=O)[nH]c3c12 [Example 26, hydrochloride]: 29
O=c1cc(C2CCNCC2)n2nc3cc(F)ccc3c2[nH]1 [Example 18, hydrochloride]: 38
O=c1cc(C2CCNCC2)n2nc3cnccc3c2[nH]1 [Example 29, hydrochloride]: 28

* * *

Test system: clot lysis (fibrinolysis) in human citrated plasma, tPA-induced
Assay: Plasma-based clot lysis assay (5%)
Assay type: biochemical
Conditions: diluted human citrated plasma (platelet-poor, 5%), fibrinogen 3 μM, CaCl2 10 mM, tPA 0.2 nM, 37° C., OD 405 nm
pIC50: −log10 of the molar value. Where a name gives a salt, the structure may show the parent alone.
RECORDED_METRIC: pIC50

// solved cases for pIC50 follow
O=c1cc(C2CCNCC2)n2nc3cccc(-n4cncn4)c3c2[nH]1 [Example 91, hydrochloride]: 7.57
O=c1cc(C2CCNCC2)n2nc3nc(-c4ccccc4)ccc3c2[nH]1 [Example 44, hydrochloride]: 7.32

P = O=c1cc(C2CCNCC2)n2nc3ccc(F)c(-c4ccccc4F)c3c2[nH]1 [Example 92, hydrochloride]
Q = O=c1cc(C2CCNCC2)n2nc3cccc(-c4c(F)cccc4F)c3c2[nH]1 [Example 78, hydrochloride]
Query :: Which gives the smaller pIC50 number: P or Q ? Write down the label of the entry you select.
Result :: P
(P: 7.57, Q: 7.82)

* * *

System: clot lysis (fibrinolysis) in human citrated plasma, tPA-induced
Assay: Plasma-based clot lysis assay (5%)
Format: biochemical
Settings: diluted human citrated plasma (platelet-poor, 5%), fibrinogen 3 μM, CaCl2 10 mM, tPA 0.2 nM, 37° C., OD 405 nm
Counter-ions that a name gives are not always drawn.
RECORDED_METRIC: IC50 (nM)

O=c1cc(C2CCNCC2)n2nc3cccc(-n4nccn4)c3c2[nH]1 [Example 98, hydrochloride]: 27
O=c1cc(C2CCNCC2)n2nc3cc(Br)ccc3c2[nH]1 [Example 21, hydrochloride]: 30

a = CC1CC(c2cc(=O)[nH]c3c4c(Cl)cccc4nn23)CCN1 (single isomer, unassigned; (+))
b = O=c1cc(C2CCNCC2)n2nc3c(Br)cncc3c2[nH]1 [Example 27, hydrochloride]
Query :: Which of the two items, a and b , has the greater recorded IC50? Returns: label corresponding to the selected item.
Result :: a

* * *

Test system: clot lysis (fibrinolysis) in human citrated plasma, tPA-induced
Test: Plasma-based clot lysis assay (5%)
Format: biochemical
Conditions: diluted human citrated plasma (platelet-poor, 5%), fibrinogen 3 μM, CaCl2 10 mM, tPA 0.2 nM, 37° C., OD 405 nm
Where a name gives a salt, the structure may show the parent alone.
RECORDED_METRIC: IC50 (nM)

O=c1cc(C2CCNCC2)n2nc3cccc(-c4ccncc4)c3c2[nH]1 [Example 59, hydrochloride]: 16

1 = Cc1nnc2nn3c(C4CCNCC4)cc(=O)[nH]c3c2c1C [Example 17, hydrochloride]
2 = Cc1cc(C(F)(F)F)nc2nn3c(C4CCNCC4)cc(=O)[nH]c3c12 [Example 14, hydrochloride]
Query :: Returns: the label, 1 or 2 , whose recorded IC50 is the lower number. Return value: the label identifying the chosen record.
Result :: 1
